Each record here notes measured protein stability index.
B1: HSP90AB1 (parent)
chain: TLRQKAEADKNDKAVKDLVVLLFE

# Variants of: B1
# assay_details: protein stability index of a GFP-peptide fusion (GPS, HEK-293T) (PSI 1-6); higher = more stable;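 further: lentivirally expressed fusions sorted by FACS into six bins by GFP to DsRed ratio, PSI derived from sequencing read proportions per bin multiplied by bin number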
# condition_label: c terminus: a fixed tail appended
Form field (numeric): enter value without unit.

{"variant_annotation": "L2W", "observed_property": "protein stability index", "data_value": 2.43}
{"variant_annotation": "K13A", "observed_property": "protein stability index", "data_value": 3.19}
{"variant_annotation": "L21D", "observed_property": "protein stability index", "data_value": 4.26}

[in] Return value of protein stability index for input V19Y , no commentary.
[out] 3.1

[in] Return value of protein stability index for input V15D , no commentary.
[out] 3.2

Data origin, for the record: the supplement of paper PMC10567573
